Item-by-item account of TGI
test system: HL-60(TB) leukemia; experiment: NCI tumour cell line growth inhibition, 48 h

CCOC(=O)C1=C(Nc2ccccc2)OC/C1=N\NC(=O)Cc1ccccc1; > 50 µM
CC(/C=C/c1ncccc1OCCCCCC(=O)O)=N\NC1=NCCN1; > 100 µM
COc1ccc2c(c1)/C(=C(\C(Cl)=C(\Cl)N1CCCCC1)[N+](=O)[O-])N2; > 100 µM
COCCO; > 100 µM
NC(=S)N/N=C(/CC(=O)c1ccc([N+](=O)[O-])cc1)C(=O)Nc1ncc([N+](=O)[O-])s1; > 100 µM
O=c1[nH]c(=S)[nH]c2c1sc(=S)n2-c1ccccc1; > 100 µM
O=[N+]([O-])c1cccc(C2SCc3nc4ccccc4n32)c1 (stereo not given); > 100 µM
O=C1C(NS(=O)(=O)c2ccccc2)=C(n2cnc3ccccc32)C(=O)c2ccccc21; > 100 µM

Briefly, TGI measured for "CC(=O)CC(=O)CCCC(=O)Nc1ccc(Cl)cc1C" : > 100 µM

Field TGI (entry "O=C(NCCCN1CCN(CCCNC(=O)c2cnc3ccccc3n2)CC1)c1cnc2ccccc2n1" ) reads > 100 µM

---

tested on: UACC-62 melanoma; assay: NCI tumour cell line growth inhibition, 48 h
property-label: TGI (µM)
Supply the numeric figure in µM, leaving out any unit text.

The recorded TGI for entry COC1/C=C/C(C)C(OC)CC(O)/C=C/C(C)C(C(C)C(OC)C(C)CCC(=O)C(C)C(C/C=C/N(C)C=O)OC)OC(=O)/C=C/C=C(\C)CC(OC)C(OC)C2=CC(=O)O[C@@H](C(C)C(OC)C1)[C@H]2O (stereo partly specified) equals 0.185

Per the records, this molecule ( "CCOP(=O)(CCP(=O)(OCC)OCC)OCC.C[CH2][Sn]([Cl])([Cl])[CH2]C" ) has TGI equal to 55

What the record says about "CN(CCCNC(=O)c1cn(C)c2c1ccc1cc(Cl)ccc12)CCCNC(=O)c1cn(C)c2c1ccc1cc(Cl)ccc12" : TGI is 3.76

GET /value?item= "O=C(N[C@H](c1ccc(Cl)c(Cl)c1)C1CNC1)c1ccc2cnccc2c1" &field=TGI returns 19.1

Looking up COc1ccc(-c2cc(-c3ccccc3)n(C3OC(COC(C)=O)C(OC(C)=O)C(OC(C)=O)C3OC(C)=O)c(=S)c2C#N)cc1 (stereo unspecified) , I found its TGI recorded as 16.4

---

This section lists GI50 readings for SK-MEL-28 melanoma.

Take a look at these entries with their results.
CSC1=Nc2c(c(C)c(-c3ccccc3)n2COC(CO)CO)C2=NC(=O)C(C)N12 (stereo not drawn); > 100 µM
CCOP(=O)(CCP(=O)(OCC)OCC)OCC.C[CH2][Sn]([Cl])([Cl])[CH2]C; 35.6 µM

The reported value for "CCCNc1nc(N(C)O)nc(N(C)O)n1" in terms of GI50 is 2.64 µM

---

system: MALME-3M melanoma; test: NCI tumour cell line growth inhibition, 48 h
Each record here notes measured TGI.

Consider the following illustrative entries.
CC(=O)CC(=O)CCCC(=O)Nc1ccc(Cl)cc1C; > 100 µM
COc1cc2c(cc1OCCCCNC(=O)c1cc3ccccc3[nH]1)N=CC1CCCN1C2=O (centres undefined); 47.7 µM
C=CCC(C(=O)OC)C1(C(=O)OC)c2[nH]c3ccccc3c2CCN1Cc1ccccc1 (centres undefined); > 100 µM
N/C(=N\O)c1ncc(-c2ccc(C(F)(F)F)cc2)c(NC2CCCCCC2)n1; 13.9 µM
C1CNCCN2CCCNCCN(C1)CC2; > 100 µM

Briefly, TGI measured for "COc1ccc2c(c1)C(=O)c1c-2n(CCCN=[N+]=[N-])c(=O)c2ccccc12" : > 100 µM

TGI measured on "Nc1[nH]c(=O)nc2sc3c(c12)CCCC3" = > 100 µM

TGI for "O=[N+]([O-])c1cc2n[nH]nc2c2nonc12" is > 100 µM

For reference, reported TGI for COc1cc(/C=C2\C(=O)N(c3cccc(Cl)c3)C(c3ccccc3)S2(=O)=O)cc(OC)c1OC (centres undefined) stands at > 100 µM

Memo: "c1cncc(CNc2ccccc2-c2nnc(Nc3ccc4c(c3)OCO4)o2)c1" , reported TGI: > 100 µM

Record summary for "C/C(Cl)=N\OC(=O)Nc1ccc([N+](=O)[O-])cc1" : reported TGI = 7.95 µM

Sample "Cc1ccc(/C=C(\C#N)n2nnc3cc(Cl)c(Cl)cc32)cc1" ; TGI observed: 6.21 µM

Field TGI (entry "CCCS(=O)(=O)O" ) reads > 100 µM

TGI reading for "O=C(CC(=O)c1ccncc1)c1ccccc1" : > 89.2 µM

Reported TGI ( "NNC(N)=Nc1cccc2ccccc12" ) = > 100 µM

Record summary for "Nc1nnc2nc(CC(=O)/C=C/c3ccccc3)c(=O)[nH]n12" : reported TGI = > 100 µM

Value of TGI reported for the compound CC1C2Cc3ccc(O)cc3C1(C)CCN2C (centres undefined) is > 100 µM

According to the records, this compound CN(Cc1cnc2nc(N)nc(N)c2n1)c1ccc(C(=O)NC(CCS(=O)(=O)O)C(=O)O)cc1 (centres undefined) displays TGI of > 100 µM

// field: TGI; key: "NS(=O)(=O)c1nnc(NC(=O)CCC(=O)O)s1" ; value = > 100 µM

Quick note, TGI for "CC(/C=C/c1ncccc1OCCCCCC(=O)O)=N\NC1=NCCN1" landed at > 100 µM

// field: TGI; key: "N#Cc1ccc(Oc2nccc(-c3c(-c4ccc(F)cc4)ncn3C3CCNCC3)n2)cc1" ; value = > 25 µM

Memo: C=CCN1C(=O)/C(=c2\sc3n(c2=O)C2C(NN=3)N(CC)C(=O)N2CC)c2ccccc21 (centres undefined) , reported TGI: > 100 µM

Lab note: "C/C(CC(O)(C(F)(F)F)C(F)(F)F)=N\N" gave TGI of > 10 µM

TGI reported for this compound "O=C1Cc2cc(CCn3ccnc3)c(Cl)cc2N1" : > 100 µM
